- System: Plasmodium falciparum
- methodDescription: Hit confirmation in dose-response curve in NF54 nanoGlo assay, at 72h
- Assay type: functional, organism-based, Erythrocyte
- Parameters: timepoint 72 hour
- testParameters: Plasmodium falciparum, NF54, Erythrocyte, 72 h
measurementType: IC50 (nM)
Value expressed in nM; do not type the unit.

Below: 10 compounds and their reported IC50.
compound	resultUnit	IC50
CCn1cc(-c2nc(-c3ccccc3C)no2)c(=O)c2cc(F)c(N3CCCCC3)cc21	nM	6030
CC(=O)N(C1CCN(Cc2ccccc2)CC1)C1(C(=O)Nc2ccc3[nH]ccc3c2)CCN(C)CC1	nM	1660
COc1ccccc1C(=O)NC1=NN2C(=NC(c3ccc(Cl)cc3)=C[C@H]2c2ccc(Cl)cc2)N1	nM	630
Cc1ccc(OCC(=O)Nc2cc(C)nn2-c2nc3c(cnn3-c3ccc(C)c(C)c3)c(=O)[nH]2)cc1	nM	2090
Cc1ccc[n+](Cc2ccc3ccccc3n2)c1	nM	3020
Cc1ccc(C)c(-n2cnc(=O)n2[C@H]2CCN(C3CC3)C2=O)c1	nM	2950
COc1ccc2c(c1)OC13CCN(C)CC1C2C(C(=O)c1ccccc1OC)C(=O)N3 (stereo not given)	nM	2000
CCN(CC)c1ccc(C(=O)Nc2ccc3nc(N4CCCC4)cc(C)c3c2)cc1	nM	2000
Cc1nc2cc(NC(=O)[C@@]3(C)CCCN(C(=O)c4ccccc4)C3)ccc2o1	nM	1580
Cc1cccc(CN2CCC[C@H](C(=O)c3ccc4c5c(cccc35)CC4)C2)n1	nM	1660

Below: the item to evaluate.
Data point: "COc1ccc(CN(Cc2ccncc2)CC2CCN(C3CCN(C)CC3)CC2)c(F)c1" ; IC50 = 1290

---

- Test system: Plasmodium falciparum
- methodDescription: Hit confirmation in dose-response curve in NF54 pLDH assay, at 72h
- Type: functional, organism-based
- Parameters: timepoint 72 hour
- testParameters: NF54, Erythrocyte
measurementType: IC50 (µM)
Value expressed in µM; do not type the unit.

chemicalStructure	resultUnit	IC50
Oc1c([C@@H](c2ccccn2)N2CCCC2)ccc2cccnc12	µM	7.76
COc1cc(C(=O)Nc2[nH]c(=O)ncc2F)ccc1Cl	µM	0.01

Data point: "Cc1c(C)c2ccc(NC(=O)c3cc4ccccc4o3)cc2[nH]c1=O" ; IC50 = 8.13

---

IC50 for assorted compounds
- System: Plasmodium falciparum
- methodDescription: Hit confirmation in dose-response curve in NF54 nanoGlo assay, at 72h
- Type: functional, organism-based, Erythrocyte
- Set-up: timepoint 72 hour
- testParameters: Plasmodium falciparum, NF54, Erythrocyte, 72 h
Value expressed in µM; do not type the unit.

chemicalStructure	resultUnit	numericValue
c1cc(-c2nc3cc4ccccc4cc3[nH]2)nc(-c2nc3cc4ccccc4cc3[nH]2)c1	µM	0.513

Data point: "COc1ccc(-c2cc(-c3ccccc3)nc(N3CCC(C)CC3)n2)cc1" ; IC50 = 9.55

Data point: "O=C(Nc1ccccc1Cl)N1CCC(N2CCc3sccc3C2)CC1" ; IC50 = 3.72

Data point: "Cc1nn(C(C)(C)C)c2nc(C3CC3)cc(C(=O)N(C)c3ccccc3)c12" ; IC50 = 1.86

Data point: "CCOC(=O)c1cn(CC)c2cc(NC3CCCCC3)c(F)cc2c1=O" ; IC50 = 0.724

Data point: "COc1cccc(CC(=O)N2CCc3nc(N4CCC(C)CC4)nc(Oc4ccccc4OC)c3C2)c1" ; IC50 = 3.63

Data point: "CC(=O)Nc1c(-c2ccc(C)cc2)c(C)nn1-c1ccc(C(=O)Nc2cc(C)ccn2)cc1" ; IC50 = 2.75

Data point: "CC(C)c1ccc(Oc2cnn(-c3cccc(Cl)c3)c(=O)c2Nc2cccc(C(=O)NC3CC3)c2)cc1" ; IC50 = 3.02

Data point: "CCC(CC)c1cc([C@H]2CN3CC[C@H]2C[C@@H]3CNS(=O)(=O)Cc2ccccc2)nc(-c2ccncc2)n1" ; IC50 = 2.04

---

pIC50 for assorted molecules
- Tested on: Plasmodium falciparum
- methodDescription: Hit confirmation in dose-response curve in NF54 nanoGlo assay, at 72h
- Assay type: functional, organism-based, Erythrocyte
- Parameters: timepoint 72 hour
- testParameters: Plasmodium falciparum, NF54, Erythrocyte, 72 h
# pIC50 is unitless: minus log10 of the molar concentration; print number only

Below: 3 molecules and their reported pIC50.
molecule	pIC50
O=C(Cc1ccc(N(Cc2cccc(F)c2)C(=O)C2CCCC2)cc1)NCCN1CCCC1	5.40
CCNc1nc(C)cc(Nc2ccc(NC(=O)c3cc(C)ccc3C)cc2)n1	6.49
COc1ccc(CC(=O)NCCn2c(C(F)(F)F)nc3ccccc32)cc1	5.59

Data point: "Cc1nn(-c2ccccc2)c2nc(Cc3ccccc3)nc(N3CCCN(C(=O)NC4CCCCC4)CC3)c12" ; pIC50 = 5.30

Data point: "COc1ccc(-[n+]2c(-c3ccc(-c4ccccc4)cc3)cn3c2COCC3)cc1" ; pIC50 = 5.67

Data point: "O=C(CCn1c(=O)[nH]c2ccsc2c1=O)NCc1ccccc1" ; pIC50 = 5.04

Data point: "COc1ccccc1Cn1cnc2c1c(=O)n(C1CCCCC1)c(=O)n2-c1ccccc1Cl" ; pIC50 = 5.85

---

- System: Plasmodium falciparum
- methodDescription: Re-testing in dose-response curve in 3D7 pLDH assay, at 72h
- Type: functional, organism-based
- Parameters: timepoint 72 hour
- testParameters: 3D7, Erythrocyte
measurementType: pIC50
# pIC50 is unitless: minus log10 of the molar concentration; print number only

Below: 3 molecules and their reported pIC50.
molecule	numericValue
CCc1nc2c(C(=O)N3CCOc4c(C)cc(C)cc43)ccnc2[nH]1	6.63
Cc1c([C@@H](NCc2ncccc2O)C(C)C)oc2ccccc12	6.54
CC(C)CC[C@@H](CCNCCN(C)C)c1ccc(Cl)cc1	5.49

Data point: "Cc1noc(C)c1CN1C[C@@H]2Oc3cc(F)ccc3C(=O)N(C)[C@@H]2C1" ; pIC50 = 6.31

Data point: "CC(=O)N(C1CCN(Cc2ccccc2)CC1)C1(C(=O)Nc2ccc3[nH]ccc3c2)CCN(C)CC1" ; pIC50 = 5.91

Data point: "CCCCN(CC)CCNC(=O)C1CCN(C2=NS(=O)(=O)C(c3ccc(OC)cc3)=C2C)CC1" ; pIC50 = 6.15

Data point: COc1ccc(C(=O)N2c3ncnn3C(c3ccccc3)CC2c2ccc(C)cc2)cc1OC (stereo not drawn) ; pIC50 = 6.93

Data point: "O=S(=O)(Nc1ccc(O)c2cccnc12)N1CCCC1" ; pIC50 = 4.98

Data point: "NC(=NCc1cccc2cccnc12)N1CCN(c2nccs2)CC1" ; pIC50 = 6.15

---

- System: Plasmodium falciparum
- methodDescription: Hit confirmation in dose-response curve in NF54 nanoGlo assay, at 72h
- Format: functional, organism-based, Erythrocyte
- Set-up: timepoint 72 hour
- testParameters: Plasmodium falciparum, NF54, Erythrocyte, 72 h
Please assign class 0 whenever IC50 is at or above 2000 nM, and class 1 whenever it is below.

compound	classLabel
Cc1ccc(NC(=O)c2c(C)nc3sc(C(=O)NCc4ccccc4)c(N)c3c2-c2ccccc2Cl)c(C)c1	class 1
COc1nc(NC2CCS(=O)(=O)CC2)ncc1F	class 1
CCN1CCN(c2cccc(NC(=O)c3cc(F)cc4c(=O)c5cc(F)ccc5[nH]c34)c2)CC1	class 1

Prompt: Given "COc1ccc(CC(=O)N2N=C(C)C[C@]2(O)c2cccnc2)cc1" , is recorded IC50 strictly lower than 2000 nM?
Completion: class 0

Prompt: Given "Nc1nc2c(s1)CN(CCc1ccccc1)CC2" , is recorded IC50 strictly lower than 2000 nM?
Completion: class 0

Prompt: Given "O=C(NCc1ccccc1F)C1CCN(c2cncnc2N2CCCC2)CC1" , is recorded IC50 strictly lower than 2000 nM?
Completion: class 0

Prompt: Given CC(N=C1NC(=NC(C)c2ccccc2)c2ccccc21)c1ccccc1 (stereo not given) , is recorded IC50 strictly lower than 2000 nM?
Completion: class 0

Prompt: Given CC[N+](CC)(CC(=O)OC1CC2CCC1(C)C2(C)C)CC(=O)OC1CC2CCC1(C)C2(C)C (stereo not given) , is recorded IC50 strictly lower than 2000 nM?
Completion: class 1

Prompt: Given "Cc1ccc(C(=O)N(Cc2cccc(F)c2)c2ccc(CC(=O)N[C@@H](C)c3ccccc3)cc2)cc1" , is recorded IC50 strictly lower than 2000 nM?
Completion: class 1

---

pIC50 for assorted molecules
- System: Plasmodium falciparum
- methodDescription: Hit confirmation in dose-response curve in NF54 nanoGlo assay, at 72h
- Assay type: functional, organism-based, Erythrocyte
- Set-up: timepoint 72 hour
- testParameters: Plasmodium falciparum, NF54, Erythrocyte, 72 h
# pIC50 is unitless: minus log10 of the molar concentration; print number only

Data point: "CC1CCN(C[C@H]2CCCCCN2C(=O)NCCc2ccccc2)CC1" ; pIC50 = 5.40

Data point: "Cc1ccc(Nc2ccc(N3CCNCC3)nn2)nc1" ; pIC50 = 5.80

Data point: "CCN(CCN(C)C)C(=O)c1cccc(-c2ccc3nccc(N)c3c2)c1" ; pIC50 = 5.91

Data point: "Cc1cccc2c(-c3cc(N)nc(N)n3)c[nH]c12" ; pIC50 = 6.00

Data point: "O=C(Nc1[nH]c(=O)ncc1F)c1coc(-c2ccccc2)n1" ; pIC50 = 8.23

Data point: "O=c1c2ccccc2nc2cc(-c3ccc(O)cc3)c(-c3ccccc3)nn12" ; pIC50 = 5.67

Data point: "CNC(=O)[C@@H]1C[C@H](NCc2cc(OC)c(OC)c(OC)c2)CN1CC(c1ccccc1)c1ccccc1" ; pIC50 = 5.67

Data point: "O=C(CCCc1ccccc1)Nc1cc(C2CC2)nn1-c1nc(-c2ccccc2)cc(=O)[nH]1" ; pIC50 = 5.43

Data point: "COc1ccc(-c2csc(-n3cc(C4=CCN(CCO)CC4)cn3)n2)cc1" ; pIC50 = 5.29

Data point: "Cc1ccc(NC(=O)N2CCCN(c3ccc(NC(=O)c4cccs4)cc3C(=O)NCc3ccc(F)cc3)CC2)cc1" ; pIC50 = 5.44

Data point: "Cc1cc(C)c2nc(C)cc(Nc3ccc(O)cc3)c2c1" ; pIC50 = 5.91
